# assay target: T1, PUF4 RNA-binding domain (Saccharomyces cerevisiae, UniProt P25339 537-888)
# T1 sequence: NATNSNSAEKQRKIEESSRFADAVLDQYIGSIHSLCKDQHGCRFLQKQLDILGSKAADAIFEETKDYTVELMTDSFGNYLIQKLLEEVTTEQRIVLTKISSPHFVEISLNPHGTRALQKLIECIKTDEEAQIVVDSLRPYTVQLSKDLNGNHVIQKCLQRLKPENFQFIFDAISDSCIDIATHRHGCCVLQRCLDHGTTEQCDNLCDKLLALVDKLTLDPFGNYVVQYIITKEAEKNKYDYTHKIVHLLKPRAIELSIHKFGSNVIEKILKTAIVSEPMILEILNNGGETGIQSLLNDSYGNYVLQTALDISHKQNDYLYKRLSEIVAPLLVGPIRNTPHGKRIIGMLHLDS
# procedure details: Mg; RNA-MaP; 20 mM Na-HEPES pH 7.4, 30 mM KOAc, 0.75 mM MgCl2, 0.1% Tween-20, 5% glycerol, 0.1 mg/mL BSA, 2 mM DTT; 25 C; 0.0125-409.6 nM protein
# condition details: tags: N-His6-TEV cleaved; C-SNAP kept, Cy3B-labelled; label: tethered on chip by stalled RNA polymerase
pKd: −log10 of the molar value.
Here, each record is paired with measured pKd data.
observed property: pKd

* Ic_S4_P4E.1_K4.1_C4.1_H4.1_A4.1_[T5G]_[A6T]_[T7A]_F4.1_[A9C]_T4.1 (ssRNA) RNA: UUUGACAACUGAUCGUUCUUUCUUGUAGUAUCUUCUUUCUCGAUCAGUUGUCUUU | 6.76
* UCUCUUUGUAUCGCUGUCUCUU (ssRNA) [Ic_S1_P5E.1_K5.1_C5.1_H5.1_A5.1_[T6C]_[A7G]_F5.1_[T8C]_[A10G]_T5.1] | 6.01
* UCUCUUCAUAUAUUAUUACUUCUCUU (ssRNA) [Id_ii_S1_P5E.3_K5.2_C5.2_[T-1A]_H5.2_A5.1_F5.1_T5.2_[T11C]_[A12T]] | 6.49
* ACAAACCGUAUAUAUAAGACAAAC (ssRNA) [Id_ii_S3_P3E.3_K3.2_C3.2_[T-1G]_H3.2_A3.1_F3.1_T3.2_[T9A]_[A10G]] | 6.10
* Ic_S4_P4E.1_K4.1_C4.1_H4.1_A4.1_[T5C]_[A6C]_F4.1_[T8G]_[A9G]_T4.1 (ssRNA) RNA: UUUGACAACUGAUCGUUCUUUCUUGUACCUGGUUCUUUCUCGAUCAGUUGUCUUU | 6.37
* Ib_S2_P4E.1_K4.1_C4.1_H4.1_[G2A]_[A4G]_A4.1_F4.1_T4.1 (ssRNA) RNA: UUUGAUUAAUAUGAUAUCGUUCUUUCUUAUGUAUUAUUCUUUCUCGAUAUCAUAUUAAUCUUU | 7.87
* UCUCUUGCUGUAUAUUAACUCUCUU (ssRNA) [Id_ii_S1_P4E.2_K4.1_C4.2_[C-2G]_[T-1C]_H4.1_A4.1_F4.1_T4.2_[G10A]_[T11C]] | 8.82
* Id_iii_S4_P5E.7_K5.3_C5.3_[C-2T]_H5.3_A5.1_F5.1_T5.2 (ssRNA) RNA: UUUGACAACUGAUCGUUCUUUCUUUUACACUUAUUAUAUUCUUUCUCGAUCAGUUGUCUUU | 6.29
* UCUCUUCUUGUAUAUCUCAUAUCUCUU (ssRNA) [Ie_S1_P3E.2_K3.1_C3.2_H3.1_A3.1_F3.1_[+7CTC]_T3.2] | 7.61
* Ic_S2_P4E.1_K4.1_C4.1_H4.1_A4.1_[T5C]_[A6C]_F4.1_[T8C]_[A9G]_T4.1 (ssRNA) RNA: UUUGAUUAAUAUGAUAUCGUUCUUUCUUGUACCUCGUUCUUUCUCGAUAUCAUAUUAAUCUUU | 7.26
* Ie_S2_P4E.1_K4.1_C4.1_H4.1_A4.1_[+6CTCTC]_F4.1_T4.1 (ssRNA) RNA: UUUGAUUAAUAUGAUAUCGUUCUUUCUUGUAUACUCUCUUAUUCUUUCUCGAUAUCAUAUUAAUCUUU | 8.18
* Ic_S2_P4E.1_K4.1_C4.1_H4.1_A4.1_[A6C]_[T7A]_F4.1_[A9G]_T4.1 (ssRNA) RNA: UUUGAUUAAUAUGAUAUCGUUCUUUCUUGUAUCAUGUUCUUUCUCGAUAUCAUAUUAAUCUUU | 8.32
* Ic_S4_P5E.1_K5.1_C5.1_H5.1_A5.1_[T6C]_[A7T]_F5.1_[T8A]_T5.1 (ssRNA) RNA: UUUGACAACUGAUCGUUCUUUCUUGUAUCUAUAUUCUUUCUCGAUCAGUUGUCUUU | 8.40
* Id_ii_S2_P4E.2_K4.1_C4.2_[C-2A]_[T-1G]_H4.1_A4.1_F4.1_T4.2_[G10T]_[T11G] (ssRNA) RNA: UUUGAUUAAUAUGAUAUCGUUCUUUCUAGUGUAUAUUAUGUUCUUUCUCGAUAUCAUAUUAAUCUUU | 8.79
* Id_ii_S2_P3E.3_K3.2_C3.2_[T-1G]_H3.2_A3.1_F3.1_T3.2_[T9C]_[A10C] (ssRNA) RNA: UUUGAUUAAUAUGAUAUCGUUCUUUCUCGUAUAUAUACCUUCUUUCUCGAUAUCAUAUUAAUCUUU | 6.06
* Id_ii_S2_P5E.3_K5.2_C5.2_[C-2T]_[T-1G]_H5.2_A5.1_F5.1_T5.2_[T11A]_[A12T] (ssRNA) RNA: UUUGAUUAAUAUGAUAUCGUUCUUUCUUGUAUAUUAUUAAUUUCUUUCUCGAUAUCAUAUUAAUCUUU | 9.43
* Ie_S2_P5E.1_K5.1_C5.1_H5.1_[+4TTC]_A5.1_F5.1_T5.1 (ssRNA) RNA: UUUGAUUAAUAUGAUAUCGUUCUUUCUUGUAUUCUUAUUAUUCUUUCUCGAUAUCAUAUUAAUCUUU | 8.53
* Ib_S4_P4E.1_K4.1_C4.1_H4.1_[A4C]_A4.1_[A6G]_F4.1_T4.1 (ssRNA) RNA: UUUGACAACUGAUCGUUCUUUCUUGUCUGUUAUUCUUUCUCGAUCAGUUGUCUUU | 6.72
* UCUCUUUGUAUCUUGUCUCUU (ssRNA) [Ib_S1_P4E.1_K4.1_C4.1_H4.1_A4.1_[A6C]_F4.1_[A9G]_T4.1] | 7.59
* UCUCUUUGUAGCCCUAUCUCUU (ssRNA) [Ic_S1_P5E.1_K5.1_C5.1_H5.1_A5.1_[T5G]_[T6C]_[A7C]_F5.1_[T8C]_T5.1] | 6.95
* UCUCUUUGUAUUCCUCUAUUAUCUCUU (ssRNA) [Ie_S1_P5E.1_K5.1_C5.1_H5.1_A5.1_[+6CCTCT]_F5.1_T5.1] | 7.18
